Some binders, each annotated with its measured Kd.
# SYSTEM: T1, recombinant human IGSF11 (VSIG3) extracellular domain (ECD) (human, UniProt Q5DX21 23-241, biotinylated where captured on streptavidin)
# T1 construct: also called biotinylated recombinant ECD-IGSF11; IGSF11 (ECD domain)
# T1 sequence: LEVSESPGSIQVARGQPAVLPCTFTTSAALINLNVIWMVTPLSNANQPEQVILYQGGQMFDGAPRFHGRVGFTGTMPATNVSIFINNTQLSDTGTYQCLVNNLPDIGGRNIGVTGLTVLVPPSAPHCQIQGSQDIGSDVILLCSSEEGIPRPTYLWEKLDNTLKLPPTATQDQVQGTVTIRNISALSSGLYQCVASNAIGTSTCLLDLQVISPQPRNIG
# EXPERIMENT DESCRIPTION: SPR, IgG1
EXPERIMENTAL READOUT: Kd

* A-026 (IgG1 format) (antibody, V domains shown, human IgG1 format) VH: QVQLQESGPGLVKPSQTLSLTCTVSGGSISSGGYYWSWIRQHPGKGLEWIGYIYYSGSTYYNPSLKSRVTISVDTSKNQFSLKLSSVTAADTAVYYCASWSLGTSNHGWFDPWGQGTLVTVSS VL: QSVLTQPPSASGTPGQRVTISCSGSSSNIGSNTVNWYQQLPGTAPKLLISDNNNRPSGVPDRFSGSKSGTSASLAITGLQAEDEADYYCQSYDSNLSGWVFGGGTKLTVL | > 500 nM
* A-024 (IgG1 format) (antibody, V domains shown, also called A-024-like ABP) VH: QMQLVQSGAEVKKPGSSVKVSCKASGGTFSSYAISWVRQAPGQGLEWMGWISAYNGNTNYAQKLQGRVTMTTDTSTSTAYMELRSLRSDDTAVYYCASLGSYGYTGAFDIWGQGTMATVSS VL: QSALTQPASVSGSPGQSITISCTGTSSDVGGYNYVSWYQQHPGKAPKLMIYEVSNRPSGVSNRFSGSKSGNTASLTISGLQAEDEADYYCSSYTSSSTLVVFGGGTKLTVL | > 500 nM
* A-034 (IgG1 format) (antibody, V domains shown, human IgG1 format) VH: QMQLVQSGGGLVKPGGSLRLSCAASGFTFSSYTMNWVRQAPGKGLEWVSSISSIGTYIYYADSVKGRFTISRDNAKNSLYLQMNSLRAEDTAVYYCARVLLSGSYYGYFDSWGQGTLVTVSS VL: QSVLTQPPSVSGAPGQRVTISCTGSSSNIGAGYDVHWYQQLPGTAPKLFIYGNSNRPSGVPDRFSGSKSGTSASLAITGLQAEDEADYYCQSYDSSLSGYVFGTGTKVTVL | 250 to 500 nM
